# Tested on: U2OS
# test_summary: Multiplex assay against U2OS
# Assay type: toxicity, cell-based
# applied_conditions: human, 24 h, 10 µM, compound concentration 10 uM, replicate 1
quantity_kind: Population Healthy Nuclei (%)

> print(dat)
                                   compound  assay.result
1  CN1CCN2c3ccccc3Cc3ccccc3C2C1.Cl (centres undefined) [MIANSERIN HYDROCHLORIDE]           68%
2  CN1CCC(C(=O)c2cccc(NC(=O)c3c(F)cc(F)cc3F)n2)CC1           68%
3  Cc1cc(-c2ccc3c(c2)CC[C@H]3N2CC3(CCN(C(=O)Cc4cn5cc(C)sc5n4)CC3)C2)ncn1 [PF-5190457]           72%
4  CC(C)(C)c1ccc(CSc2cnn(C(C)(C)C)c(=O)c2Cl)cc1 [PYRIDABEN]           61%

---

# Tested on: U2OS
# test_summary: Multiplex assay against U2OS
# Format: toxicity, cell-based
# applied_conditions: human, 24 h, 10 µM, compound concentration 10 uM, replicate 1
Non-standard residues stand in square brackets, D forms with d. Residues, ends and D or L forms follow the SMILES beside them.

compound	result_units	Population Fragmented Nuclei (%)
CN(C)C(=O)Cn1cc(-c2ccc(-c3nnc4ccccn34)cc2)cn1	%	22
Cc1ccc(OCC(O)C(C)NC(C)C)c2c1CCC2.Cl (configuration not stated)	%	26
CSc1nc(NC2CCCC2)c([N+](=O)[O-])c(NC2CCCC2)n1 [GS-39783]	%	26
O=c1ccc2ccc(OCCCCN3CCN(c4cccc5sccc45)CC3)cc2[nH]1 [BREXPIPRAZOLE]	%	30
CN(C)C/C=C/C(=O)Nc1ccc(C(=O)N2CCCC(Nc3ncc(Cl)c(-c4c[nH]c5ccccc45)n3)C2)cc1 (configuration not stated)	%	39
S=C(NCCCc1c[nH]cn1)NCCCN(Cc1ccc(Cl)c(Cl)c1)c1ccc(Br)cn1	%	33
CCCCC[C@H](O)/C=C/[C@H]1[C@H](O)CC(=O)[C@@H]1CCCCCCC(=O)O [ALPROSTADIL]	%	19
Cn1cc(C(=O)OCC2CCN(CCNS(C)(=O)=O)CC2)c2ccccc21	%	33
CC(C)C[C@@H]1NC(=O)[C@@H](C(C)C)NC(=O)[C@@H]2CCCN2C(=O)[C@@H](CC(=O)O)NC(=O)[C@@H](Cc2c[nH]c3ccccc23)NC1=O [BQ-123] (cyclo(L[dW][dD]P[dV]))	%	24
Cc1sc2c(c1C)C(c1ccc(Cl)cc1)=N[C@H](CC(=O)OC(C)(C)C)c1nnc(C)n1-2	%	29
CC(C)(O)C(=O)N1CCN(c2ccc(C(F)(F)F)c(C3=C(c4c[nH]c5ccccc45)C(=O)NC3=O)c2)CC1	%	48
COc1ccc2[nH]c(I)c(CCNC(C)=O)c2c1 [IODOMELATONIN]	%	25
O=C(NCCNCC(O)COc1ccc(O)cc1)N1CCOCC1.O=C(NCCNCC(O)COc1ccc(O)cc1)N1CCOCC1.O=C(O)/C=C/C(=O)O (configuration not stated) [XAMOTEROL FUMARATE]	%	22
CN1CCC(C(=O)c2cccc(NC(=O)c3c(F)cc(F)cc3F)n2)CC1	%	21
Nc1nc(-c2ccco2)c2cnn(Cc3ccccc3F)c2n1	%	38
COCCCN1CCC(NC(=O)c2cc(Cl)c(N)c3c2OCC3)CC1 [PRUCALOPRIDE]	%	23
CCc1nn2c(C)cc(C)nc2c1Cc1ccc(-c2nnc(C3CCNCC3)o2)cc1	%	24
